Tested on: A549 human lung cancer cell line
assay-details: MTT cell viability / cytotoxicity on A549
Format: cell-based
assay-context: selectivity index = IC50 on normal cells/IC50 on cancer cells
Each entry below carries its recorded SI (L929/A549).
measurement-label: SI (L929/A549)

compound="CC(=O)Nc1ccccc1OCc1nnc(SCC(=O)Nc2ccc([N+](=O)[O-])cc2)o1 [Compound 4j]" modifier_sign=< recorded_value=1
compound="CC(=O)Nc1ccccc1OCc1nnc(SCC(=O)Nc2nc3ccc(C)cc3s2)o1 [Compound 4e]" modifier_sign== recorded_value=0.69
compound="CCOc1ccc2nc(NC(=O)CSc3nnc(COc4ccccc4NC(C)=O)o3)sc2c1 [Compound 4g]" modifier_sign=< recorded_value=1
compound="CC(=O)Nc1ccccc1OCc1nnc(SCC(=O)Nc2nc3ccccc3s2)o1 [Compound 4a]" modifier_sign== recorded_value=26.250

---

measurement-label: melting point

compound="CC(=O)Nc1ccccc1OCc1nnc(SCC(=O)Nc2nc3ccccc3s2)o1 [Compound 4a]" measurement_label="melting point" recorded_value="189 to 194 °C"
compound="CCOc1ccc2nc(NC(=O)CSc3nnc(COc4ccccc4NC(C)=O)o3)sc2c1 [Compound 4g]" measurement_label="melting point" recorded_value="208 to 212 °C"
compound="CC(=O)Nc1ccccc1OCc1nnc(SCC(=O)Nc2nc3ccc(F)cc3s2)o1 [Compound 4f]" measurement_label="melting point" recorded_value="207 to 209 °C"
compound="CC(=O)Nc1ccccc1OCc1nnc(SCC(=O)Nc2nc3ccc(C)cc3s2)o1 [Compound 4e]" measurement_label="melting point" recorded_value="213 to 216 °C"
compound="CC(=O)Nc1ccccc1OCc1nnc(SCC(=O)Nc2ccccc2)o1 [Compound 4h]" measurement_label="melting point" recorded_value="188 to 191 °C"
compound="CC(=O)Nc1ccccc1OCc1nnc(SCC(=O)Nc2ccc([N+](=O)[O-])cc2)o1 [Compound 4j]" measurement_label="melting point" recorded_value="210 to 215 °C"

---

% S listing for selected molecules.
Test system: A549 cells
assay-details: Cell cycle analysis by flow cytometry
Type: cell-based, human
assay-context: A549, 24 h incubation
measurement-label: % S (%)

molecule=COc1ccc(NC(=O)CSc2nnc(COc3ccccc3NC(C)=O)o2)cc1 recorded_value=8.09
molecule=CC(=O)Nc1ccccc1OCc1nnc(SCC(=O)Nc2ccccc2)o1 recorded_value=0.0
molecule=CC(=O)Nc1ccccc1OCc1nnc(SCC(=O)Nc2ccc(Cl)cc2)o1 recorded_value=18.11
molecule=CC(=O)Nc1ccccc1OCc1nnc(SCC(=O)Nc2nc3ccc(F)cc3s2)o1 recorded_value=0.0
molecule="N.N.[Cl][Pt][Cl] [cisplatin, reference compound]" recorded_value=2.18
molecule=CC(=O)Nc1ccccc1OCc1nnc(SCC(=O)Nc2ccc(F)cc2)o1 recorded_value=6.62

---

Tested on: A549 cells
assay-details: Early/late apoptosis by Annexin V-FITC/PI flow cytometry
Assay type: cell-based, human
assay-context: A549, IC50 dose, 24 h incubation
Recorded measurements of Q3: viable cells, one per entry
measurement-label: Q3: viable cells (%)

smiles_code=CC(=O)Nc1ccccc1OCc1nnc(SCC(=O)Nc2ccc(F)cc2)o1 measurement_label="Q3: viable cells" recorded_value=48.70
smiles_code=CC(=O)Nc1ccccc1OCc1nnc(SCC(=O)Nc2ccc(Cl)cc2)o1 measurement_label="Q3: viable cells" recorded_value=48.83
smiles_code=CC(=O)Nc1ccccc1OCc1nnc(SCC(=O)Nc2nc3ccc(F)cc3s2)o1 measurement_label="Q3: viable cells" recorded_value=58.53
smiles_code=CC(=O)Nc1ccccc1OCc1nnc(SCC(=O)Nc2ccccc2)o1 measurement_label="Q3: viable cells" recorded_value=53.94
smiles_code=COc1ccc(NC(=O)CSc2nnc(COc3ccccc3NC(C)=O)o2)cc1 measurement_label="Q3: viable cells" recorded_value=48.35
